study target: Shiga toxin 1 (Stx1) (Escherichia coli O157:H7) (UniProt P08026)
Sequence (P08026 23-315): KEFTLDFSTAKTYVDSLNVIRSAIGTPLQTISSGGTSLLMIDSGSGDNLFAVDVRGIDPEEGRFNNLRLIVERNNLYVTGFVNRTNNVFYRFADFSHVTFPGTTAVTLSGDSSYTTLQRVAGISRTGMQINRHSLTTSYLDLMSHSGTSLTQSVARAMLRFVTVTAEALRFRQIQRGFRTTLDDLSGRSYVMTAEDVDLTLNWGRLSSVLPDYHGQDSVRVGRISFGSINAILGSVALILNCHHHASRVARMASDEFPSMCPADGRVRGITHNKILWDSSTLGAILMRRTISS
assay protocol: dilution ELISA, HRP-anti-E-tag
recorded metric: EC50 (nM)
# value in nM; strip the unit string

Field: example entries. Status: answers known.
{"binder": "Stx-A4 (VHH) VHH: QVQLVESGGGLVQPGGSLRLSCAASGFTLGSYHIGWFRHPPGKEREGTSCLSSRGDYTKYAEAVKGRFTISRDNTKSTVYLQMNNLKPEDTGIYVCAAIRPVLSDSHCTLAARYNYWGQGTQVTVSS", "EC50 [nM]": 30}
{"binder": "A9/D4 heterodimer VNA (designed binder) QVQLVETGGGLAQAGDSLRLSCVEPGRTLDMYAMGWIRQAPGEEREFVASISGVGGSPRYADSVKGRFTISKDNTKSTIWLQMNSLKPEDTAVYYCAAGGDIYYGGSPQWRGQGTRVTVSSEPKTPKPQGGGGSGGGGSGGGGSQVQLVESGGGLVQAGGSLRLSCAASGRINGDYAMGWFRQAPGEEREFVAVNSWIGGSTYYTDSVKGRFTLSRDNAKNTLSLQMNSLKPEDTAVYYCAAGHYTDFPTYFKEYDYWGQGTQVTVSSEPKTPKPQ", "EC50 [nM]": 0.6}
{"binder": "Stx1-D4 (VHH) VHH: QVQLVESGGGLVQAGGSLRLSCAASGRINGDYAMGWFRQAPGEEREFVAVNSWIGGSTYYTDSVKGRFTLSRDNAKNTLSLQMNSLKPEDTAVYYCAAGHYTDFPTYFKEYDYWGQGTQVTVSS", "EC50 [nM]": 0.5}

So what does the record say about EC50 for Stx1-A9 (VHH) VHH: QVQLVETGGGLAQAGDSLRLSCVEPGRTLDMYAMGWIRQAPGEEREFVASISGVGGSPRYADSVKGRFTISKDNTKSTIWLQMNSLKPEDTAVYYCAAGGDIYYGGSPQWRGQGTRVTVSS ? 10
